Value source: paper PMC5807869

A collection of compounds and their measured CLint scaled
- measurement.description: Metabolic stability in human liver microsomes
- Assay type: in vitro ADME
assay.readout: CLint scaled

                            compound_string  assay_readout   measured_value
0  Cc1nn2c(-c3c(C)nn(C)c3-c3ccc(C(F)(F)F)cc3)nc(C)c2c(=O)[nH]1   CLint scaled     16 mL/min/kg
1  Cc1nn2c(-c3c(CO)nn(C)c3-c3ccc(C(F)(F)F)cc3)nc(C)c2c(=O)[nH]1   CLint scaled    < 8 mL/min/kg
2  Cc1nn2c(-c3c(CO)nn(C)c3-c3ccc(C(F)(F)F)cc3)nc(CO)c2c(=O)[nH]1   CLint scaled  < 9.2 mL/min/kg
3  Cc1nn2c(-c3c(C)nn(C)c3-c3ccc(C(F)(F)F)cc3)nc(CO)c2c(=O)[nH]1   CLint scaled    < 8 mL/min/kg

----------
A collection of compounds and their measured CLint scaled
- measurement.description: Metabolic stability in human hepatocytes
- Assay type: in vitro ADME
assay.readout: CLint scaled (L/h/kg)

>>> df
                            compound_string  censoring_qualifier  measured_value
0  Cc1nn2c(-c3c(C)nn(C)c3-c3ccc(C(F)(F)F)cc3)nc(CO)c2c(=O)[nH]1                    <          0.0216
1  Cc1nn2c(-c3c(C)nn(C)c3-c3ccc(C(F)(F)F)cc3)nc(C)c2c(=O)[nH]1                    =            1.08
